Recorded Neutralization IC50, H3-WH95-OR, one value per entry.
molecular target: HA of ca A/Wuhan/359/95 (H3N2) (influenza A virus); assay: cell-based or functional assay
Express it in µg/mL; write the number only.

binder	Neutralization IC50, H3-WH95-OR / µg/mL
Antibody 15 (antibody, V domains shown) VH: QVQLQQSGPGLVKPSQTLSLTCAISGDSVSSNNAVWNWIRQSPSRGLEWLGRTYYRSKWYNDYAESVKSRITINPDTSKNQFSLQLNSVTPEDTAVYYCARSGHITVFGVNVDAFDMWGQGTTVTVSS VL: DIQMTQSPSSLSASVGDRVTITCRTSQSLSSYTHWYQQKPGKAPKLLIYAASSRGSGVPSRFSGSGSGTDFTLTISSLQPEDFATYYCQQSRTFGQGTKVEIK	3.48
Antibody 3 (antibody, V domains shown) VH: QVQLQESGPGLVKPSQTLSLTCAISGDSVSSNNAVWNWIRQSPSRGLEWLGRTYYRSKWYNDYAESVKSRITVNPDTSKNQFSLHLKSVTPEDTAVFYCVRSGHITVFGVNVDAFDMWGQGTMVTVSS VL: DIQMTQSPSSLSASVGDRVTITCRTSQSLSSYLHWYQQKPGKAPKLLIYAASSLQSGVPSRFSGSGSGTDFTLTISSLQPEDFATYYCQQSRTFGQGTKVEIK	7.7

Value of Neutralization IC50, H3-WH95-OR reported for the binder Antibody 12 (antibody, V domains shown) VH: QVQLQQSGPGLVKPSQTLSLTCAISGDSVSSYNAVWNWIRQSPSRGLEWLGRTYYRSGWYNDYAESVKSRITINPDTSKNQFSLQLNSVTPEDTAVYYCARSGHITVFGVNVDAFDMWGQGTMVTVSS VL: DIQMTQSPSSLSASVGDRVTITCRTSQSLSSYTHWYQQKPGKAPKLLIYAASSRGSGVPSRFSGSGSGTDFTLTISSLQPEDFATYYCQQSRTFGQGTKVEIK is 2.34
